tested on: pigweed (Amaranthus retroflexus); test: Test A preemergence, visual injury rating 0-100; type: in vivo; conditions: 500 g ai/ha
Assay Readout: Pigweed plant response rating (0 to 100 scale)
Kindly provide the number alone.

Examples with their reported Pigweed plant response rating (0 to 100 scale) follow.
CC1=[N+]([O-])C(C(=O)Nc2cccc(F)c2F)C(c2ccc(F)c(Cl)c2)C1 (racemic): 60
CC(C)C1=[N+]([O-])C(C(=O)Nc2cccc(F)c2F)C(c2ccc(C(F)(F)F)cc2)C1 (racemic): 0
CC1=[N+]([O-])C(C(=O)Nc2cccc(F)c2F)C(c2ccc(Cl)c(C(F)(F)F)c2)C1 (racemic): 80
CC1=[N+]([O-])C(C(=O)Nc2cccc(F)c2F)C(c2ccc(C)c(C(F)(F)F)c2)C1 (racemic): 70
CC1=[N+]([O-])[C@H](C(=O)Nc2cccc(F)c2F)[C@@H](c2ccc(C(F)F)cc2)C1 (relative stereo): 90
CC1=[N+]([O-])C(C(=O)Nc2ccccc2C(F)(F)F)C(c2ccc(C(F)(F)F)cc2)C1 (racemic): 50

# ---- query compound ----
# input Fill blank: measured Pigweed plant response rating (0 to 100 scale) of the compound CC1=[N+]([O-])C(C(=O)Nc2cccc(F)c2F)C(c2cccc(Cl)c2C)C1 (racemic) is ____.
# output 80

---

test system: corn (Zea mays); test: Test A postemergence, visual injury rating 0-100; format: in vivo; details: 500 g ai/ha, 0 to 100 scale
Corn plant response rating strictly under 40 means Met; at 40 or over means Not met.

Worked cases, answers included:
CC1=[N+]([O-])[C@@H](C(=O)Nc2cccc(F)c2F)[C@H](c2ccc(Cl)cc2)C1 (relative stereo): Not met
CC1=[N+]([O-])C(C(=O)Nc2cccc(F)c2F)C(c2ccc(Cl)c(F)c2)C1 (racemic): Not met
COc1cc(C2CC(C)=[N+]([O-])C2C(=O)Nc2cccc(F)c2F)cc(C)n1 (racemic): Not met
CC1=[N+]([O-])C(C(=O)Nc2cccc(F)c2Cl)C(c2ccc(C(F)(F)F)cc2)C1 (racemic): Met
CCOc1cc(OC)cc(C2CC(C)=[N+]([O-])C2C(=O)Nc2cccc(F)c2F)c1 (racemic): Not met

Okay, next one:
# input Regarding CC1=[N+]([O-])C(C(=O)Nc2ccccc2[S+](C)[O-])C(c2ccc(C(F)(F)F)cc2)C1 (racemic) , kindly confirm whether its Corn plant response rating is beneath 40.
# output Met

---

test system: blackgrass (Alopecurus myosuroides); assay: Test A postemergence, visual injury rating 0-100; assay type: in vivo; conditions: 31 g ai/ha, 0 to 100 scale
From the text: […]
Reported values of Blackgrass plant response rating for individual entries
When you answer, write just the number.

Consider the worked cases shown below.
CC1=[N+]([O-])C(C(=O)Nc2cccc(F)c2F)C(c2ccc(F)c(Oc3ccc(F)cn3)c2)C1 (racemic) [Compound 48]: 30
CC1=[N+]([O-])[C@@H](C(=O)Nc2cccc(F)c2F)[C@H](c2ccc(F)c(F)c2)C1 [Compound 39]: 0
CC1=[N+]([O-])[C@H](C(=O)Nc2cccc(F)c2F)[C@@H](c2ccc(Cl)cc2)C1 [Compound 40]: 0
CC1=[N+]([O-])[C@@H](C(=O)Nc2cccc(F)c2F)[C@H](c2cccc(OC(C)(C)C)c2)C1 [Compound 69]: 10
CC1=[N+]([O-])C(C(=O)Nc2cccc(F)c2F)C(c2ccc(F)cc2)C1 (racemic) [Compound 9]: 0
CC1=[N+]([O-])C(C(=O)Nc2cccc(F)c2F)C(c2ccc(F)c(Oc3ccc(Cl)nc3)c2)C1 (racemic) [Compound 51]: 0

Now turn to the next compound.
# input # get_value(readout='Blackgrass plant response rating', item= CC1=[N+]([O-])[C@@H](C(=O)Nc2cccc(F)c2F)[C@H](c2cccc(Oc3ncc(F)cc3F)c2)C1 [Compound 70] )
# output 0
